Assay: qHTS assay to identify small molecule antagonists of the TGF-beta/Smad signaling pathway - cell viability counter screen (AID 1346824); note: nearly all actives have a fitted effect of over 50% in size
Settings: SBE-bla HEK293T viability, CellTiter-Glo luminescence; series mostly up to 76.8 µM
Description: U.S. Tox21 Program National Center for Advancing Translational Sciences [NCATS] NIH Chemical Genomics Center [NCGC] U.S. Environmental Protection Agency [EPA] National Institutes of Environmental Health Sciences [NIEHS] National Toxicology Program [NTP] U.S. Food and Drug Administration [FDA] […]
Results filed as inconclusive are left out. Calls of active or inactive are those of the source. Calls come from the whole dose curve; as a rule, active = well fitted cell-killing curve with a large enough effect in the repeat runs; inconclusive = weak or mixed curves; inactive = flat fitted curve, though single readings scatter.
parameter.measured: viability change, negative = cytotoxic

Worked cases, answers included:
compound: CNC(=O)Oc1ccccc1C(C)C
parameter.measured: viability change, negative = cytotoxic
data.value: inactive
--
compound: NCCOS(=O)(=O)O
parameter.measured: viability change, negative = cytotoxic
data.value: inactive
--
compound: CC#Cc1cc(C)nc(Nc2ccccc2)n1
parameter.measured: viability change, negative = cytotoxic
data.value: inactive
--
compound: CC(C)(C)C(=O)Cl
parameter.measured: viability change, negative = cytotoxic
data.value: inactive
--
compound: Oc1ccc2c3c1O[C@H]1[C@@H](O)C=C[C@H]4[C@@H](C2)NCC[C@@]341
parameter.measured: viability change, negative = cytotoxic
data.value: inactive
--
compound: CC(C)C(C)(N)C#N (stereo not given)
parameter.measured: viability change, negative = cytotoxic
data.value: inactive
--
compound: C=C(Cl)CSC(=S)N(CC)CC
parameter.measured: viability change, negative = cytotoxic
data.value: inactive
--
compound: C#CCOC(=O)/C=C(C)/C=C/CC(C)CCCC(C)C (stereo not given)
parameter.measured: viability change, negative = cytotoxic
data.value: inactive
--
compound: CC(C)[N+](C)(CCC(C(N)=O)(c1ccccc1)c1ccccc1)C(C)C
parameter.measured: viability change, negative = cytotoxic
data.value: inactive
--
compound: CCCC[N+](=O)[O-]
parameter.measured: viability change, negative = cytotoxic
data.value: inactive

Would you kindly look at the next entry?
input: I would be grateful if you could share the reported viability change, negative = cytotoxic for CCN[C@@H](C)Cc1cccc(C(F)(F)F)c1 .
output: inactive
